tested on: SF-268; assay: NCI tumour cell line growth inhibition, 48 h
Calls of active or inactive are those of the source. Cut-off read from the data, not from the text of the source: active = GI50 up to about 1.1 µM and inactive = higher.
Return exactly one item of YES (active), NO (inactive)

So what was the verdict on Cn1c(=O)cc(N2CCCC2)[nH]c1=O in this test?
NO

So what was the verdict on CN1C(=O)CSC1=S [3-METHYL-RHODANINE] in this test?
NO

So what was the verdict on CC(=O)O[C@H]1CC[C@@]2(C)[C@H](CC[C@@H]3[C@@H]2CC[C@]2(C)[C@@H](c4ccc(=O)oc4)C[C@H]4O[C@]342)C1 in this test?
YES

So what was the verdict on O=C(Cc1nc2ccccc2c(=O)n1-c1ccccc1Cl)c1ccncc1 in this test?
NO

So what was the verdict on CCOc1cc2cnc3c4cc(OC)c(OC)cc4ccc3c2cc1OC in this test?
NO

So what was the verdict on O=S1(=O)c2ccccc2N(O)C2=NCCN21 in this test?
NO

So what was the verdict on CC1=N/C(=C\c2cccc([N+](=O)[O-])c2)C(=O)O1 in this test?
NO

So what was the verdict on COC1CC(C)(NC(=O)C(F)(F)F)C2OC(c3ccccc3)OCC2O1 (stereo not drawn) in this test?
NO

So what was the verdict on CN(C)C(=S)/N=c1\ssc(=S)n1-c1ccccc1 in this test?
NO

So what was the verdict on O=c1[nH]nc(Nc2ccc(Cl)cc2)c2nnn(-c3ccc([N+](=O)[O-])cc3)c12 in this test?
NO

So what was the verdict on CCOC(=O)c1ccc(NCC#CCN2CCCCC2)cc1 in this test?
NO

So what was the verdict on CCOC(CI)O[C@@H]1C=C[C@H](OC(C)=O)C1 (stereo partly drawn) in this test?
NO

So what was the verdict on CC(NNC(=O)c1cc[n+]([BH2-]C#N)cc1)c1ccc(Cl)c(Cl)c1 (stereo not drawn) in this test?
NO

So what was the verdict on CC[C@]12C=CCN3CCC4(c5cc(/N=N/c6ccccc6)c(OC)cc5N(C)[C@H]4[C@@](O)(C(=O)OC)[C@@H]1OC(C)=O)[C@@H]32 (stereo partly drawn) in this test?
NO

So what was the verdict on CSCC[C@H](NC(=O)[C@H](CC(C)C)NC(=O)[C@@H](Cc1ccccc1)NC(=O)CNC(=O)[C@@H](NC(=O)[C@H](C)NC(=O)[C@H](Cc1c[nH]c2ccccc12)NC(=O)[C@H](CCC(N)=O)NC(=O)[C@H](N)CC(N)=O)C(C)C)C(N)=O in this test?
NO

So what was the verdict on COc1cc([C@@H]2OCC3C(c4ccc5c(c4)OCO5)OCC32)cc(OC)c1OC (stereo partly drawn) in this test?
NO

So what was the verdict on O=C(NCc1ccc2ccc3cccnc3c2n1)c1ccc[n+](Cc2ccccc2)c1 in this test?
NO

So what was the verdict on COc1ccccc1OCc1nnc(SCC(=O)O)n1-c1ccccc1 in this test?
NO

So what was the verdict on CCOC(=O)CCC(NC(=O)c1ccc(OCc2nc3ccccc3n3cccc23)cc1)C(=O)OCC (stereo not drawn) in this test?
NO

So what was the verdict on C=CCNC1=C2C[C@@H](C)C[C@@H](OC)[C@H](OC(=O)CCN)[C@H](C)/C=C(\C)[C@@H](OC(N)=O)[C@H](OC)/C=C\C=C(/C)C(=O)NC(=CC1=O)C2=O in this test?
NO

So what was the verdict on O=C(NCCCCCCCCNC(=O)c1cc(-c2ccccc2)nc2ccccc12)c1cc(-c2ccccc2)nc2ccccc12 in this test?
NO

So what was the verdict on CCc1c(CNc2ccc(C(=O)NC(CC(=O)O)C(=O)O)cc2)ccc2nc(N)nc(N)c12 (stereo not drawn) in this test?
YES

So what was the verdict on CC(C)=CCOc1cc(NC(=S)c2ccsc2C)ccc1Cl in this test?
NO

So what was the verdict on COc1ccc(CCn2c(=O)c3ccccc3n(C)c2=O)cc1 in this test?
NO

So what was the verdict on CN(C)CCNc1ncnc2[nH]c(-c3ccc4ccccc4c3)nc12 in this test?
NO

So what was the verdict on CC(C)(C)N/C(N)=N/C#N in this test?
NO

So what was the verdict on O=CC1OC(=O)c2cc(O)c(O)c(O)c2-c2c(cc(O)c(O)c2O)C(=O)OC1C1OC(=O)c2cc(O)c(O)c(O)c2-c2c(O)c(O)c3oc(=O)c4c(c(O)c(O)c5oc(=O)c2c3c54)-c2c(cc(O)c(O)c2O)C(=O)OCC1O (stereo not drawn) in this test?
NO

So what was the verdict on CC12CCC3C(CCC4CC(OC(=O)Cc5ccc(N(CCCl)CCCl)cc5)CCC43C)C1CCC(=O)N2 (stereo not drawn) in this test?
NO

So what was the verdict on O=C(Nc1ccc2[nH]c(C(=O)N3CC(CCl)c4c3cc([N+](=O)[O-])c3ccccc43)cc2c1)Nc1ccc2[nH]c(C(=O)N3CC(CCl)c4c3cc([N+](=O)[O-])c3ccccc43)cc2c1 (stereo not drawn) in this test?
NO

So what was the verdict on C/C=C/[C@@]1(OC(=O)c2ccccc2)C[C@@H]2CCCC[C@@H]21 in this test?
NO

So what was the verdict on Cc1cc(S(=O)(=O)NC2=NCc3nc4ccccc4n32)c(S)cc1Cl in this test?
NO

So what was the verdict on CC(=O)OCC1OC(c2nnc(C)o2)=CC(OC(C)=O)C1OC(C)=O (stereo not drawn) in this test?
NO

So what was the verdict on Cc1ccc2nc(N/N=C/c3sccc3C)cc(C)c2c1 in this test?
NO

So what was the verdict on O=C(O)CC(Sc1ccccc1)c1ccccc1 (stereo not drawn) in this test?
NO

So what was the verdict on CC(C)C(NCc1c2ccccc2[n+]([O-])c2ccccc12)C(=O)O (stereo not drawn) in this test?
NO

So what was the verdict on CC(C)=CCC/C(C)=C/CC/C(C)=C/CSc1ccc(Cl)cc1C(=O)O in this test?
NO

So what was the verdict on O=C1CC2c3ccccc3CCC2c2ccccc21 (stereo not drawn) in this test?
NO

So what was the verdict on O=S(=O)(O)c1cc(O)c(/N=N\C2S(=O)(=O)OCCOS2(=O)=O)c2ccccc12 in this test?
NO
